Target: T1, interleukin-2 beta receptor (SYMANSIS, #4122H) to which a human immunoglobulin Fc region was linked (UniProt P14784 27-239, limits assumed)
T1 construct: Bought receptor-Fc, captured on anti-human immunoglobulin antibody; also called IL-2Rβ; CD122; not shown: human immunoglobulin Fc region
T1 sequence (looked up): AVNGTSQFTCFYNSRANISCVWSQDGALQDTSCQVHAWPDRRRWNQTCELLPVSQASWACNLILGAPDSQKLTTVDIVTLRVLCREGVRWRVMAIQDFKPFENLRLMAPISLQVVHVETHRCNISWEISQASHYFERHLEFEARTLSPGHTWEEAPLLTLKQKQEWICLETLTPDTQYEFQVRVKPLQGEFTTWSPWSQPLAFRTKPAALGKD
Test: SPR (Biacore T200); receptor-Fc captured on anti-human Ig CM5 chip, analog flowed; relative to analog 1 = 100%
READOUT_LABEL: Relative binding affinity (%)
Output spec: scalar in %, unitless text.

query: Quote Relative binding affinity (%) reported for interleukin-2 analog 90 (ligand) PTSSSTKKTQLQLEHLLLDLQMILNGINNYKNPKLTRMLTWKFYMPKKATELKHLQCLEEELKPLEEVLNLAQSKNFHFEPRDVVSNINVFVLELKGSETTFMCEYADETATIVEFLNRWITFSQSIISTLT please.
result: 12800

query: For the binder interleukin-2 analog 74 (ligand) PTSSSTKKTQLQLEHLLLDLQMILNGINNYKNPKLTDMLTKKFYMPKKATELKHLQCLEEELKPLEEVLNLAQSKNFHYDPRDVVSNINVFVLELKGSETTFMCEYADETATIVEFLNRWITFSQSIISTLT , report Relative binding affinity (%).
result: 8150

query: Annotate the binder interleukin-2 analog 102 (ligand) PTSSSTKKTQLQLEHLLLDLQMILNGINNYKNPKLTRMLTFKFYMPKKATELKHLQCLEEELKPLEEVLNLAQSKNFHFEPRDVVSNINVIVLELKGSETTFMCEYADETATIVEFLNRWITFSQSIISTLT with its measured Relative binding affinity (%).
result: 4450

query: For the binder interleukin-2 analog 99 (ligand) PTSSSTKKTQLQLEHLLLDLQMILNGINNYKNPKLTAMLTFKFYMPKKATELKHLQCLEEELKPLEEVLNLAQSKNFHFEPRDLVSNINVFVLELKGSETTFMCEYADETATIVEFLNRWITFSQSIISTLT , report Relative binding affinity (%).
result: 1510
